test system: herpes simplex virus (HSV) type 1; test: Inactivation of herpes simplex virus in infected MRC-5 cells by alcohols (Example 25); assay type: cell-based; conditions: 70% alcohol in PBS; 16 min; duplicate wells; further: key: 0: no CPE; 1: a few; 2: several; 3: all cells infected with HSV
Listing of recorded HSV - CPE after 44 hours with the detecting cell-layer by entry.
MEASURED_QUANTITY: HSV - CPE after 44 hours with the detecting cell-layer

INSERT INTO assay_data (input_smiles, recorded_result) VALUES
  ('CC(C)O', 1),
  ('CCO', 3),
  ('CCCO', 0),
  ('CO', 1);

----------
system: herpes simplex virus (HSV) type 1; assay: Inactivation of herpes simplex virus in infected MRC-5 cells by alcohols (Example 25); assay type: cell-based; details: 60% alcohol in PBS; 32 min; duplicate wells; further: key: 0: no CPE; 1: a few; 2: several; 3: all cells infected with HSV
Quick reference for HSV - CPE after 44 hours with the detecting cell-layer among some molecules
MEASURED_QUANTITY: HSV - CPE after 44 hours with the detecting cell-layer

INSERT INTO results (input_smiles, recorded_result) VALUES
  ('CCO', 3),
  ('CCCO', 0),
  ('CO', 1),
  ('CC(C)O', 3);
